test: Cmax in Sprague-Dawley rat at 20 mg/kg, po measured after 2 to 26 hrs; format: ADME, organism-based; parameters: dose 20 mg/kg, route oral; conditions: in vivo
measurement_name: Cmax (ng/mL)
Quick note: give the figure in ng/mL, leave out the unit.

| chemical_string | reported_value |
| --- | --- |
| COc1cc(OC)c2c(=O)cc(-c3cc(C)c(OC[C@H](O)CN4CCN(C)CC4)c(C)c3)oc2c1 | 606 |

Field: next compound
Cmax lookup needed for COc1cc(OC)c2c(=O)cc(-c3cc(C)c(OC[C@H](O)CN4CCCCC4)c(C)c3)oc2c1 , thanks. 575

----------
This listing pairs compounds with measured IC50.
target: Bromodomain-containing protein 4 (Homo sapiens, UniProt O60885); assay: Binding affinity to recombinant BRD4 BD2 (unknown origin) incubated for 1 hr by TR-FRET assay
// return numeric value only (unit: µM, not printed)

| chemical_string | measurement_units | IC50 |
| --- | --- | --- |
| COc1cc(OC)c2c(=O)cc(-c3cc(C)c(OC[C@H](O)CN4CCCCC4)c(C)c3)oc2c1 | µM | 0.684 |

Continue with the compound presented below.
# input compound: COc1cc(OC)c2c(=O)cc(-c3cc(C)c(OC[C@@H](O)CN4CCCCC4)c(C)c3)oc2c1 ; wanted: its IC50 0.093

----------
target: CYP2C9 (Homo sapiens); assay: Inhibition of CYP2C9 (unknown origin) at 10 uM relative to control; type: ADME
Sequence (P11712 whole entry): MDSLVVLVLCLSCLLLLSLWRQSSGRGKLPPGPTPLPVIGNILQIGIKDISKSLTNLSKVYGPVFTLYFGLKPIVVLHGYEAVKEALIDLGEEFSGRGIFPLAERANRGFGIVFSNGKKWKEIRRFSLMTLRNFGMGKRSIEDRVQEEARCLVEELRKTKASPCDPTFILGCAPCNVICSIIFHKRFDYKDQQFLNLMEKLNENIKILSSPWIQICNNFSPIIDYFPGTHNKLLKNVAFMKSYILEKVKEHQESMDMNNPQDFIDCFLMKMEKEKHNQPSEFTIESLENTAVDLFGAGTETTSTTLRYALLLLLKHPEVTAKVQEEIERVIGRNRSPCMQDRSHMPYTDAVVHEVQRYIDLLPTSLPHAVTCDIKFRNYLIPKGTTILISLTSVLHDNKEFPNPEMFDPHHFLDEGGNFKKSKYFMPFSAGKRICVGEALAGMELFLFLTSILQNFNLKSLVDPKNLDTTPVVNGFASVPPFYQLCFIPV
measurement_name: inhibition at 10 µM (%)
Give just the numeric value; % need not be written.

What value of inhibition at 10 µM has been recorded for this entry: COc1cc(OC)c2c(=O)cc(-c3cc(C)c(OC[C@H](O)CN4CCN(C)CC4)c(C)c3)oc2c1 1.9

----------
target: CYP3A4 (Homo sapiens, UniProt P08684); experiment: Inhibition of CYP3A4 (unknown origin) at 10 uM using testosterone substrate relative to control; format: ADME; conditions: probe testosterone
Sequence (P08684 whole entry): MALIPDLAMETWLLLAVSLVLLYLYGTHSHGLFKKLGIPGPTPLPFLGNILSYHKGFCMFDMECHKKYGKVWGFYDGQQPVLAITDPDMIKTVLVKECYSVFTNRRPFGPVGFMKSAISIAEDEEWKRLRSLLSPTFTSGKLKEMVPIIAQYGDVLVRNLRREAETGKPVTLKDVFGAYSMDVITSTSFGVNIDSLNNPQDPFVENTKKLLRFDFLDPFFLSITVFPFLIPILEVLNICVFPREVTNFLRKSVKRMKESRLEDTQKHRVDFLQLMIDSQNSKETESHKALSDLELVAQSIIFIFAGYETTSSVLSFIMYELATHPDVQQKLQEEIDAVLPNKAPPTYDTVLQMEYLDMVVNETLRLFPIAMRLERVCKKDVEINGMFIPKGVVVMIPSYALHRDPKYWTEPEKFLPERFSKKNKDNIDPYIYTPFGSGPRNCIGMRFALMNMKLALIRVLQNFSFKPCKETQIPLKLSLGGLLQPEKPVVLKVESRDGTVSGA
measurement_name: inhibition at 10 µM (%)
Please state the figure in %; there is no need to write the unit.

Form field: inhibition at 10 µM recorded for COc1cc(OC)c2c(=O)cc(-c3cc(C)c(OC[C@H](O)CN4CCN(C)CC4)c(C)c3)oc2c1 with CYP3A4 (Homo sapiens, UniProt P08684) (enter value) 8.2

----------
target: Bromodomain-containing protein 4 (Homo sapiens); assay: Inhibition of BRD4 in poly(I:C)-stimulated human SAECs TLR3-inducible IL-6 gene expression at 10 uM pre-incubated for 24 hrs before poly(I:C) stimulation for 4 hrs by qRT-PCR analysis relative to control
compounds and their reported inhibition
Give just the number in %; leave the unit off.

Here is how some compounds turned out for inhibition.
| chemical_string | target_under_test | measurement_units | inhibition |
| --- | --- | --- | --- |
| Cc1cc(-c2nc3ccc(F)cc3c(=O)[nH]2)cc(C)c1O | Bromodomain-containing protein 4 (Homo sapiens) | % | 62 |
| COc1cc(OC)c2c(=O)cc(-c3cc(C)c(OCCO)c(C)c3)oc2c1 | Bromodomain-containing protein 4 (Homo sapiens) | % | 98 |
| Cc1cc(-c2nc3ccc(Br)cc3c(=O)[nH]2)cc(C)c1O | Bromodomain-containing protein 4 (Homo sapiens) | % | 25 |
| COc1cc(OC)c2c(=O)cc(-c3cc(C)c(OC[C@H](O)CN4CCC(F)(F)CC4)c(C)c3)oc2c1 | Bromodomain-containing protein 4 (Homo sapiens) | % | 88 |
| Cc1cc(-c2nc3cccc(F)c3c(=O)[nH]2)cc(C)c1O | Bromodomain-containing protein 4 (Homo sapiens) | % | 62 |

Requested read-out: inhibition. Entry: COc1cc(OC)c2c(=O)[nH]c(-c3cc(C)c(OC[C@@H](O)CN4CCN(C)CC4)c(C)c3)nc2c1 80

Input COc1cc(OC)c2c(=O)cc(-c3cc(C)c(OC[C@@H](O)CN4CCCCC4)c(C)c3)oc2c1 100

Next entry: COc1cc(OC)c2c(=O)cc(-c3cc(C)c(OC[C@H](O)CN4CCOCC4)c(C)c3)oc2c1 82

Another compound to look at: COc1cc(OC)c2c(=O)cc(-c3cc(C)c(OC[C@H](O)CN4CCCCC4)c(C)c3)oc2c1 100

And what about the compound COc1cc(OC)c2c(=O)[nH]c(-c3cc(C)c(OCCO)c(C)c3)nc2c1 ? 65

What about this compound? O=c1[nH]c(-c2cc(F)c(O)cc2F)nc2ccccc12 59

Moving on to the next compound: COc1cc(OC)c2c(=O)cc(-c3cc(C)c(OC[C@@H](F)CN4CCCCC4)c(C)c3)oc2c1 90

Subsequent entry: COc1cc(OC)c2c(=O)cc(-c3cc(C)c(OC[C@H](O)CN(C)C)c(C)c3)oc2c1 82

# iterate: Cc1cc(-c2nc3cc(Br)ccc3c(=O)[nH]2)cc(C)c1O 15

Check Cc1cc(-c2nc3ccc(Cl)cc3c(=O)[nH]2)cc(C)c1O too. 53

What do you have for COc1cc(OC)c2c(=O)[nH]c(-c3cc(C)c(OC[C@@H]4CO4)c(C)c3)nc2c1 ? 83

Queued: Cc1cc(-c2nc3ccccc3c(=O)n2C)cc(C)c1O 55

Cited source: ChEMBL document CHEMBL4402595
